# Substrate: CCCC(=O)Oc1ccc([N+](=O)[O-])cc1
# Procedure Summary: hydrolysis kinetics
# Type: biochemical, Archaeoglobus fulgidus
# Condition: 37°C
Readout Type: kcat (s⁻¹)
Record the value in s⁻¹, omitting the unit from your answer.

AFEST (Archaeoglobus fulgidus DSM 4304; V293G) (protein, pET-28a(+) in E. coli BL21-CodonPlus(DE3), Ni-NTA purified; 5' primer starts … (MLDMPI)) MLDMPIDPVYYQLAEYFDSLPKFDQFSSAREYREAINRIYEERNRQLSQHERVERVEDRTIKGRNGDIRVRVYQQKPDSPVLVYYHGGGFVICSIESHDALCRRIARLSNSTVVSVDYRLAPEHKFPAAVYDCYDATKWVAENAEELRIDPSKIFVGGDSAGGNLAAAVSIMARDSGEDFIKHQILIYPVVNFVAPTPSLLEFGEGLWILDQKIMSWFSEQYFSREEDKFNPLASVIFADLENLPPALIITAEYDPLRDEGEVFGQMLRRAGVEASIVRYRGVLHGFINYYPGLKAARDAINQIAALLVFD: 118
AFEST (Archaeoglobus fulgidus DSM 4304; F287Y/S94G) (protein, pET-28a(+) in E. coli BL21-CodonPlus(DE3), Ni-NTA purified; 5' primer starts … (MLDMPI)) MLDMPIDPVYYQLAEYFDSLPKFDQFSSAREYREAINRIYEERNRQLSQHERVERVEDRTIKGRNGDIRVRVYQQKPDSPVLVYYHGGGFVICGIESHDALCRRIARLSNSTVVSVDYRLAPEHKFPAAVYDCYDATKWVAENAEELRIDPSKIFVGGDSAGGNLAAAVSIMARDSGEDFIKHQILIYPVVNFVAPTPSLLEFGEGLWILDQKIMSWFSEQYFSREEDKFNPLASVIFADLENLPPALIITAEYDPLRDEGEVFGQMLRRAGVEASIVRYRGVLHGYINYYPVLKAARDAINQIAALLVFD: 155
AFEST (Archaeoglobus fulgidus DSM 4304; V293E) (protein, pET-28a(+) in E. coli BL21-CodonPlus(DE3), Ni-NTA purified; 5' primer starts … (MLDMPI)) MLDMPIDPVYYQLAEYFDSLPKFDQFSSAREYREAINRIYEERNRQLSQHERVERVEDRTIKGRNGDIRVRVYQQKPDSPVLVYYHGGGFVICSIESHDALCRRIARLSNSTVVSVDYRLAPEHKFPAAVYDCYDATKWVAENAEELRIDPSKIFVGGDSAGGNLAAAVSIMARDSGEDFIKHQILIYPVVNFVAPTPSLLEFGEGLWILDQKIMSWFSEQYFSREEDKFNPLASVIFADLENLPPALIITAEYDPLRDEGEVFGQMLRRAGVEASIVRYRGVLHGFINYYPELKAARDAINQIAALLVFD: 138

Shift focus to the following entry.
Given the protein AFEST (Archaeoglobus fulgidus DSM 4304) (protein, pET-28a(+) in E. coli BL21-CodonPlus(DE3), Ni-NTA purified; 5' primer starts … (MLDMPI)) MLDMPIDPVYYQLAEYFDSLPKFDQFSSAREYREAINRIYEERNRQLSQHERVERVEDRTIKGRNGDIRVRVYQQKPDSPVLVYYHGGGFVICSIESHDALCRRIARLSNSTVVSVDYRLAPEHKFPAAVYDCYDATKWVAENAEELRIDPSKIFVGGDSAGGNLAAAVSIMARDSGEDFIKHQILIYPVVNFVAPTPSLLEFGEGLWILDQKIMSWFSEQYFSREEDKFNPLASVIFADLENLPPALIITAEYDPLRDEGEVFGQMLRRAGVEASIVRYRGVLHGFINYYPVLKAARDAINQIAALLVFD , what is its reported kcat?
135
